# TARGET_UNDER_TEST: h-GABA-A α5β3γ2 (Homo sapiens, UniProt P18507+P31644)
# Construct: expressed in transfected cells; host or cells: Xenopus laevis oocytes, micro-injected with subunit RNA
# PROTOCOL_SUMMARY: Two-electrode voltage clamp electrophysiology in Xenopus oocytes expressing GABAA receptors (modulation of GABA EC20 current)
# Assay type: cell-based
# APPLIED_CONDITIONS: Table 1; % modulation of GABA EC20 = 100*(Fold increase-1)
MEASURED_ATTRIBUTE: Efficacy (GABA) % (%)
Quick reminder: number only, in %, skip the unit.

Some entries whose results are on file:
GIVEN_SMILES	Efficacy (GABA) % / %
CCn1nnc(-c2ccc(Cl)cc2F)c1Cn1ncc(N2CC(Oc3ccc(Cl)nc3)C2)cc1=O	126
C[C@@H]1CN(c2cnn(Cc3c(-c4ccc(Cl)cc4F)nnn3C)c(=O)c2)CCO1	86
CC(C)N1CCN(c2cnn(Cc3c(-c4ccc(C(F)(F)F)cc4F)nnn3C)c(=O)c2)C[C@@H]1C	127
Cn1nnc(-c2ccc(Cl)cc2F)c1Cn1ncc(N2CC(Oc3ccc(Cl)nc3)C2)cc1=O	55
Cc1nccc(OC2CN(c3cnn(Cc4c(-c5ccc(Cl)cc5F)nnn4C)c(=O)c3)C2)n1	86

In: Look up Efficacy (GABA) % with h-GABA-A α5β3γ2 (Homo sapiens, UniProt P18507+P31644) for this molecule: CCn1nnc(-c2ccc(Cl)cc2F)c1Cn1ncc(N2CC(Oc3cccnn3)C2)cc1=O
Out: 164

In: Look up Efficacy (GABA) % with h-GABA-A α5β3γ2 (Homo sapiens, UniProt P18507+P31644) for this molecule: CCOC1CN(c2cnn(Cc3c(-c4ccc(Cl)cc4F)nnn3CC)c(=O)c2)C1
Out: 128

In: Look up Efficacy (GABA) % with h-GABA-A α5β3γ2 (Homo sapiens, UniProt P18507+P31644) for this molecule: C[C@@H]1CN(c2cnn(Cc3c(-c4ccc(Cl)nc4)nnn3C)c(=O)c2)C[C@H](C)O1
Out: 228

====

The entries below are paired with their reported pKi.
# TARGET_UNDER_TEST: h-GABA-A α5β3γ2 (Homo sapiens, UniProt P18507+P31644)
# Construct: expressed in transfected cells; host or cells: Xenopus laevis oocytes, micro-injected with subunit RNA
# PROTOCOL_SUMMARY: [3H]flumazenil competition binding assay on membranes of HEK293 cells expressing GABAA receptors
# APPLIED_CONDITIONS: Table 1; displacement of [3H]-Flumazenil (0.5 nM), HEK293 cells expressing human receptors, means of two determinations
Reminder that pKi means the negative base-10 logarithm of the concentration expressed in mol/L.

GIVEN_SMILES	pKi
CCn1nnc(-c2ccc(Cl)cc2F)c1Cn1ncc(N2CC3(CC[C@@H](F)CO3)C2)cc1=O	7.60
CO[C@H]1COC2(C1)CN(c1cnn(Cc3c(-c4ccc(Cl)cc4F)nnn3C)c(=O)c1)C2	7.78
Cn1nnc(-c2ccc(C(F)(F)F)cc2F)c1Cn1ncc(N2CC(Oc3ccc(Cl)nc3)C2)cc1=O	8.03
COc1ccc(-c2cnn(Cc3c(-c4ccc(Cl)cc4F)nnn3C)c(=O)c2)cc1	8.59
Cn1nnc(-c2ccc(Cl)cc2F)c1Cn1ncc(N2CC3(CCCCO3)C2)cc1=O	7.95

In: Look up pKi with h-GABA-A α5β3γ2 (Homo sapiens, UniProt P18507+P31644) for this compound: CO[C@@H]1COC2(C1)CN(c1cnn(Cc3c(-c4ccc(Cl)cc4F)nnn3C)c(=O)c1)C2
Out: 7.33

In: Look up pKi with h-GABA-A α5β3γ2 (Homo sapiens, UniProt P18507+P31644) for this compound: COc1ncc(-c2cnn(Cc3c(-c4ncc(C(F)(F)F)cn4)nnn3C)c(=O)c2)cc1Cl
Out: 7.81

In: Look up pKi with h-GABA-A α5β3γ2 (Homo sapiens, UniProt P18507+P31644) for this compound: Cn1nnc(-c2ccc(Cl)cc2F)c1Cn1ncc(N2CC(OC(C)(C)C)C2)cc1=O
Out: 7.69

====

The entries below are paired with their reported Efficacy (GABA) %.
# TARGET_UNDER_TEST: h-GABA-A α5β3γ2 (Homo sapiens, UniProt P18507+P31644)
# Construct: expressed in transfected cells; host or cells: Xenopus laevis oocytes, micro-injected with subunit RNA
# PROTOCOL_SUMMARY: Two-electrode voltage clamp electrophysiology in Xenopus oocytes expressing GABAA receptors (modulation of GABA EC20 current)
# Assay type: cell-based
# APPLIED_CONDITIONS: Table 1; % modulation of GABA EC20 = 100*(Fold increase-1)
Quick reminder: number only, in %, skip the unit.

GIVEN_SMILES	READING_UNIT	Efficacy (GABA) %
Cn1nnc(-c2ccc(Cl)cc2F)c1Cn1ncc(N2CC(OCC3CC3)C2)cc1=O	%	115
COc1ccc(-c2cnn(Cc3c(C)nnn3-c3ccc(Cl)cc3F)c(=O)c2)cc1	%	50
CCn1nnc(-c2ccc(Cl)cc2F)c1Cn1ncc(N2CC(OCC(F)(F)F)C2)cc1=O	%	115
Cn1nnc(-c2ccc(C(F)(F)F)cc2F)c1Cn1ncc(N2CC(Oc3cccnn3)C2)cc1=O	%	108
CN(C)c1cnn(Cc2c(-c3ccc(Cl)cc3)nnn2C)c(=O)c1	%	35

In: Which Efficacy (GABA) % reading was recorded for the molecule Cn1nnc(-c2ccc(Cl)cc2F)c1Cn1ncc(N2CCN(C(=O)C3CC3)CC2)cc1=O ?
Out: 140

In: Which Efficacy (GABA) % reading was recorded for the molecule Cn1nnc(-c2ccc(Cl)cc2)c1Cn1ncc(N2CC(OCC(F)F)C2)cc1=O ?
Out: 76

In: Which Efficacy (GABA) % reading was recorded for the molecule Cn1nnc(-c2ccc(Cl)cc2F)c1Cn1ncc(N2CC3(CCCO3)C2)cc1=O ?
Out: 49

====

# TARGET_UNDER_TEST: h-GABA-A α5β3γ2 (Homo sapiens, UniProt P18507+P31644)
# Construct: expressed in transfected cells; host or cells: Xenopus laevis oocytes, micro-injected with subunit RNA
# PROTOCOL_SUMMARY: Two-electrode voltage clamp electrophysiology in Xenopus oocytes expressing GABAA receptors (modulation of GABA EC20 current)
# Format: cell-based
# APPLIED_CONDITIONS: Table 1; % modulation of GABA EC20 = 100*(Fold increase-1)
Criterion: Efficacy (GABA) % strictly under 90%. Met: satisfied. Not met: not satisfied.

Solved cases below.
GIVEN_SMILES	TARGET_UNDER_TEST	ASSIGNED_CATEGORY
CCn1nnc(-c2ccc(Cl)cc2F)c1Cn1ncc(N2CC(OCC(F)F)C2)cc1=O	h-GABA-A α5β3γ2 (Homo sapiens, UniProt P18507+P31644)	not satisfied
Cc1ccc(-c2nnn(C)c2Cn2ncc(N3CCC(C)(C)C3)cc2=O)cn1	h-GABA-A α5β3γ2 (Homo sapiens, UniProt P18507+P31644)	not satisfied
Cc1ccc(-n2nnc(C)c2Cn2ncc(N3CCC[C@H]3C)cc2=O)cn1	h-GABA-A α5β3γ2 (Homo sapiens, UniProt P18507+P31644)	not satisfied

In: Would you kindly verify if Efficacy (GABA) % of COc1cc(-c2cnn(Cc3c(-c4ccc(Cl)cc4F)nnn3C)c(=O)c2)cnc1Cl is strictly less than 90%?
Out: satisfied

In: Would you kindly verify if Efficacy (GABA) % of Cn1nnc(-c2ncc(C(F)(F)F)cn2)c1Cn1ncc(N2CC(OC3CCC3)C2)cc1=O is strictly less than 90%?
Out: satisfied

In: Would you kindly verify if Efficacy (GABA) % of Cc1nnn(-c2ccc(Cl)cc2F)c1Cn1ncc(-c2cnn(C3CC3)c2)cc1=O is strictly less than 90%?
Out: satisfied

In: Would you kindly verify if Efficacy (GABA) % of Cn1nnc(-c2ccc(C(F)(F)F)cc2F)c1Cn1ncc(N2CC3(CCCO3)C2)cc1=O is strictly less than 90%?
Out: satisfied

In: Would you kindly verify if Efficacy (GABA) % of CNc1cnn(Cc2c(-c3ccc(Cl)cc3F)nnn2C)c(=O)c1 is strictly less than 90%?
Out: satisfied

====

# TARGET_UNDER_TEST: h-GABA-A α5β3γ2 (Homo sapiens, UniProt P18507+P31644)
# Construct: expressed in transfected cells; host or cells: Xenopus laevis oocytes, micro-injected with subunit RNA
# PROTOCOL_SUMMARY: Two-electrode voltage clamp electrophysiology in Xenopus oocytes expressing GABAA receptors (modulation of GABA EC20 current)
# Format: cell-based
# APPLIED_CONDITIONS: Table 1; Xenopus oocytes, GABA EC20, test compound at approximatively 30 fold its Ki
The entries below are paired with their reported Fold increase h-GABA-A α5β3γ2 oocyte.

Some entries whose results are on file:
COMPOUND	REPORTED_RESULT
CCOc1ncc(-c2cnn(Cc3c(-c4ccc(Cl)cc4F)nnn3C)c(=O)c2)cc1C	2.43
COc1ncc(-c2cnn(Cc3c(-c4ccc(C(F)(F)F)nn4)nnn3C)c(=O)c2)cc1Cl	2.48

In: Look up Fold increase h-GABA-A α5β3γ2 oocyte with h-GABA-A α5β3γ2 (Homo sapiens, UniProt P18507+P31644) for this compound: Cn1nnc(-c2ncc(C(F)(F)F)cn2)c1Cn1ncc(N2CC(OCC(F)F)C2)cc1=O
Out: 1.86

In: Look up Fold increase h-GABA-A α5β3γ2 oocyte with h-GABA-A α5β3γ2 (Homo sapiens, UniProt P18507+P31644) for this compound: CCOC1CN(c2cnn(Cc3c(-c4ccc(Cl)cc4F)nnn3C)c(=O)c2)C1
Out: 1.69

In: Look up Fold increase h-GABA-A α5β3γ2 oocyte with h-GABA-A α5β3γ2 (Homo sapiens, UniProt P18507+P31644) for this compound: C[C@@H]1CN(c2cnn(Cc3c(-c4ccc(Cl)nc4)nnn3C)c(=O)c2)C[C@H](C)O1
Out: 3.28

In: Look up Fold increase h-GABA-A α5β3γ2 oocyte with h-GABA-A α5β3γ2 (Homo sapiens, UniProt P18507+P31644) for this compound: COc1cc(-c2cnn(Cc3c(-c4ccc(C)nc4)nnn3C)c(=O)c2)ccn1
Out: 2.1

In: Look up Fold increase h-GABA-A α5β3γ2 oocyte with h-GABA-A α5β3γ2 (Homo sapiens, UniProt P18507+P31644) for this compound: CCn1nnc(-c2ccc(Cl)cc2F)c1Cn1ncc(N2CC3(CC[C@@H](C)CO3)C2)cc1=O
Out: 2.41
